ASSAY TARGET: dihydrolipoamide acyltransferase (DlaT) (Mycobacterium tuberculosis)
Sequence (P9WIS7 whole entry): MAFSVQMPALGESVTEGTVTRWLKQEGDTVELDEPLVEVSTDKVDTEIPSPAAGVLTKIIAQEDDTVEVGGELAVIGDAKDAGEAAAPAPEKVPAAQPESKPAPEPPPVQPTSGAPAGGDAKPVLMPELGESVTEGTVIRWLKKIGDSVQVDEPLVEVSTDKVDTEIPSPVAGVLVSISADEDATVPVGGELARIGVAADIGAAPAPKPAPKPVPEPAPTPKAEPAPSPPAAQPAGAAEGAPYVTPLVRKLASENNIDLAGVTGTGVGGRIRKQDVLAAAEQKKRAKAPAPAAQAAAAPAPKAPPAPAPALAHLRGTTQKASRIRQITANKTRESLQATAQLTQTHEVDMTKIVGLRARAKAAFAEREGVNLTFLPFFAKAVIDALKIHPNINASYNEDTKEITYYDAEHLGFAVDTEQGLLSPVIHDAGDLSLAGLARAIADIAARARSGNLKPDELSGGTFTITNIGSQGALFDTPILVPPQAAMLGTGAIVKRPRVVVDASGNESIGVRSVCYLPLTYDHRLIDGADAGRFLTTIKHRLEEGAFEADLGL
METHOD NOTES: DlaT inhibition (Dlat IC50); DTNB peroxidase assay with Lpd, DlaT and AhpD
Type: biochemical
TEST CONTEXT: Table 1, Compounds A1 to A294; read-out: Dlat IC50 category

{"columns": ["MOLECULE", "ASSAY TARGET", "IC50"],
 "data": [
  ["O=C(O)c1cc(N2C(=O)C(=Cc3ccc(-c4ccc(Cl)cc4)o3)SC2=S)cc([N+](=O)[O-])c1 [Compound A90]", "dihydrolipoamide acyltransferase (DlaT) (Mycobacterium tuberculosis)", "< 10 µM"],
  ["O=C(O)c1cc(N2C(=O)C(=Cc3ccc(-c4ccccc4OCc4ccccc4)o3)SC2=S)ccc1F [Compound A279]", "dihydrolipoamide acyltransferase (DlaT) (Mycobacterium tuberculosis)", "< 10 µM"],
  ["CCCCc1ccc(-c2ccc(C=C3SC(=S)N(c4cc(C(=O)O)ccc4F)C3=O)o2)cc1 [Compound A264]", "dihydrolipoamide acyltransferase (DlaT) (Mycobacterium tuberculosis)", "< 10 µM"],
  ["Cc1c(C(=O)O)cccc1N1C(=O)C(=Cc2ccc(-c3c(Cl)cccc3Cl)o2)SC1=S [Compound A112]", "dihydrolipoamide acyltransferase (DlaT) (Mycobacterium tuberculosis)", "< 10 µM"],
  ["CCCCc1ccc(-c2ccc(C=C3SC(=S)N(c4ccc(F)c(C(=O)O)c4)C3=O)o2)cc1 [Compound A265]", "dihydrolipoamide acyltransferase (DlaT) (Mycobacterium tuberculosis)", "< 10 µM"],
  ["O=C(O)c1cc(N2C(=O)C(=Cc3ccc(-c4ccccc4C(F)(F)F)o3)SC2=S)ccc1F [Compound A280]", "dihydrolipoamide acyltransferase (DlaT) (Mycobacterium tuberculosis)", "11 to 40 µM"],
  ["O=C(O)c1cc(N2C(=O)C(=Cc3ccc(-c4ccc(F)cc4)o3)SC2=S)ccc1F [Compound A259]", "dihydrolipoamide acyltransferase (DlaT) (Mycobacterium tuberculosis)", "11 to 40 µM"],
  ["O=C(O)c1ccc(-c2ccc(C=C3SC(=S)N(c4cccc(O)c4)C3=O)o2)cc1 [Compound A290]", "dihydrolipoamide acyltransferase (DlaT) (Mycobacterium tuberculosis)", "< 10 µM"],
  ["Cc1ccccc1-c1ccc(C=C2SC(=S)N(c3ccc(F)c(C(=O)O)c3)C2=O)o1 [Compound A257]", "dihydrolipoamide acyltransferase (DlaT) (Mycobacterium tuberculosis)", "11 to 40 µM"],
  ["CCCc1ccc(-c2ccc(C=C3SC(=S)N(c4cccc(C(=O)O)c4)C3=O)o2)cc1 [Compound A269]", "dihydrolipoamide acyltransferase (DlaT) (Mycobacterium tuberculosis)", "< 10 µM"],
  ["O=C(O)c1cccc(N2C(=O)C(=Cc3cccc(-c4ccccc4Cl)n3)SC2=S)c1 [Compound A5]", "dihydrolipoamide acyltransferase (DlaT) (Mycobacterium tuberculosis)", "> 41 µM"],
  ["O=C(O)c1cccc(N2C(=O)C(=Cc3ccc(-c4c(Cl)cccc4Cl)o3)SC2=S)c1 [Compound A39]", "dihydrolipoamide acyltransferase (DlaT) (Mycobacterium tuberculosis)", "11 to 40 µM"],
  ["COc1ccc(-c2ccc(C=C3SC(=S)N(c4cccc(C(=O)O)c4)C3=O)o2)cc1Cl [Compound A146]", "dihydrolipoamide acyltransferase (DlaT) (Mycobacterium tuberculosis)", "< 10 µM"],
  ["O=C(O)c1ccc(N2C(=O)C(=Cc3ccc(-c4ccc(Oc5ccccc5)cc4)o3)SC2=S)cc1 [Compound A14]", "dihydrolipoamide acyltransferase (DlaT) (Mycobacterium tuberculosis)", "11 to 40 µM"],
  ["NS(=O)(=O)c1cccc(N2C(=O)C(=Cc3ccc(-c4cccc(C(F)(F)F)c4)o3)SC2=S)c1 [Compound A26]", "dihydrolipoamide acyltransferase (DlaT) (Mycobacterium tuberculosis)", "11 to 40 µM"],
  ["Cc1ccc(-c2cccc(C=C3SC(=S)N(c4cccc(C(=O)O)c4)C3=O)c2)cc1 [Compound A242]", "dihydrolipoamide acyltransferase (DlaT) (Mycobacterium tuberculosis)", "11 to 40 µM"]
]}
